// provenance: patent US20090221680

# SYSTEM TESTED: thrombin (alpha-thrombin) (Homo sapiens, UniProt P00734;P00734 P00734:315-363,P00734:364-622)
# EXPERIMENTAL PROTOCOL: filter; 10 nM thrombin
binding signal: recorded values
ENDPOINT LABEL: binding signal

> print(dat)
                                     binder      measured
1  TCCCTATCGACCGGGGTTCTTTCGTGGTTCGGGTGGCTGAGGATCGATC (ssDNA) [AMX(398)_E8]  26.4 % bound
2  TCCCATCGATCTGTGGTGGTTTTGTGGCTTGGGTGGCTGAGGATCGATC (ssDNA) [AMX(399)_G8]  27.6 % bound
3  TCCTGTCGATCGGTACGTTTTCGTTTCTGGGTGGCTGAGGATCGATC (ssDNA) [AMX(398)_C11]  35.1 % bound
4  TCCCAGATGTGATCCGTATCCTGGTTTGGTTGGGTGGCTGAGGATCGATC (ssDNA) [AMX(398)_B3]  17.5 % bound
5  TCCCTCGATCTAAGGTGCTTTTAGTGGTTTGGGTGGCTGAGGATCGATC (ssDNA) [AMX(399)_D7]  7.59 % bound
6  TCCCGCTCGATTTCGAAGAATGGTTGGTTTGGGTGGCTGAGGATCGATC (ssDNA) [AMX(398)_B11]  9.76 % bound
